# assay-remarks: Formation and TEM size of amine-passivated Au nanoparticles
# Type: physicochemical
# assay-context: size of the Au nanoparticle formed with the named amine compound as ligand, same synthesis conditions
# Procedure: In a typical synthesis of water soluble nanoparticles Au:MTX, 5 μmol of HAuCl4 and 25 μmol of MTX were dispersed with brief sonication in 2 mL methanol in a tri-neck 15 mL flask on ice water (0° C.) bath under Ar purge. After 1 hour of stirring at 700 rpm, 0.5 mL of freshly prepared 0.11 M NaBH4 on ice was added drop-wise at 1200 rpm. After ˜1 hour, stirring speed was reduced to 700 rpm and kept for additional ˜30 minutes. […]
measured-property: nanoparticle (formation of monolayer-protected Au nanoparticles) (nm)

{"compound": "Nc1nc2c(ncn2[C@@H]2O[C@H](COP(=O)(O)O)[C@@H](O)[C@H]2O)c(=O)[nH]1 [guanosine monophosphate]", "numeric-value": 2.6}
{"compound": "CN(Cc1cnc2nc(N)nc(N)c2n1)c1ccc(C(=O)N[C@@H](CCC(=O)O)C(=O)O)cc1 [MTX, methotrexate]", "numeric-value": 2.6}

---

# assay-remarks: Formation and TEM size of amine-passivated Au nanoparticles
# Assay type: physicochemical
# assay-context: size of the Au nanoparticle formed with the named amine compound as ligand, same synthesis conditions
measured-property: nanoparticle (formation of monolayer-protected Au nanoparticles)

{"molecule": "Nc1ccn([C@H]2C[C@H](O)[C@@H](CO)O2)c(=O)n1", "result": "did not form"}
{"molecule": "NCCc1ccc(O)c(O)c1 [dopamine, reference compound]", "result": "did not form"}
{"molecule": "CSCC[C@H](N)C(=O)O", "result": "did not form"}
{"molecule": "NCCCC[C@H](N)C(=O)O", "result": "did not form"}

---

# assay-remarks: Formation and TEM size of amine-passivated Au nanoparticles
# Format: physicochemical
# assay-context: size of the Au nanoparticle formed with the named amine compound as ligand, same synthesis conditions
measured-property: nanoparticle (formation of monolayer-protected Au nanoparticles)

{"smiles-text": "Cc1ncc(C[n+]2csc(CCO)c2C)c(N)n1", "result": "did not form"}
{"smiles-text": "Nc1nc2c(ncn2[C@H]2C[C@H](O)[C@@H](CO)O2)c(=O)[nH]1", "result": "did not form"}
{"smiles-text": "Nc1ncnc2c1ncn2[C@H]1C[C@H](O)[C@@H](CO)O1", "result": "did not form"}
